assaySystem: human GABAA α2β2γ1 receptor (Homo sapiens (Human), UniProt P47869+Q8N1C3)
assay: Radioligand binding assay, competition for [3H]RO7239181, membranes from HEK293F cells
conditionsUsed: read-out: Ki h-GABAA α2β2γ1; [3H]RO7239181 20-30 nM, HEK293F membranes, 1 hour at 4° C., mean of two determinations
parameter: Ki

Cc1nc2n(n1)-c1ccc(C(F)(F)F)c(Cl)c1C(c1nc(O)ccc1Cl)=N[C@H]2C : 7.7 nM
COC1CN(C(=O)c2ncn3c2CN=C(c2cc(O)ccc2F)c2c-3ccc(C(F)(F)F)c2Cl)C1 : 4.18 nM
Cc1ccc2c(c1Cl)C(c1cc(O)ccc1F)=NCC(=O)N2C : 1.49 nM
CC(C)NC(=O)c1cn2c(n1)[C@H](C)N=C(c1nc(O)ccc1F)c1c-2ccc(C(F)(F)F)c1Cl : 10.8 nM
O=c1ccn2c(n1)CN=C(c1c(F)ccc(O)c1F)c1c-2ccc(Cl)c1Cl : 4.67 nM

From here, focus on the item given below.
### Prompt Which value of Ki has been reported for O=c1ccn2c(n1)CN=C(c1cc(O)ccc1F)c1c-2ccc(Cl)c1Cl in the records?
### Response 2.18 nM

###

assaySystem: human GABAA α2β2γ1 receptor (Homo sapiens (Human), UniProt P47869+Q8N1C3)
assay: Radioligand binding assay, competition for [3H]RO7239181, membranes from HEK293F cells
conditionsUsed: read-out: Ki h-GABAA α2β2γ1; [3H]RO7239181 20-30 nM, HEK293F membranes, 1 hour at 4° C., mean of two determinations
Listed next: entries and their corresponding Ki.

Illustrative cases are given below, each with its answer.
Cc1nnc2n1-c1ccc(C(F)(F)F)c(Cl)c1C(c1cc(O)ccc1F)=NC2 [Example 9] : 3.25 nM
CN1C(=O)CN=C(c2cc(O)ccc2F)c2c1ccc(C(F)(F)F)c2Cl [Example 8] : 2.35 nM
O=c1ccn2c(n1)CN=C(c1cc(O)ccc1F)c1c-2ccc(C(F)(F)F)c1Cl [Example 11] : 1.88 nM
Cc1nnc2n1-c1ccc(C(F)(F)F)c(Cl)c1C(c1cc(O)ccc1F)=N[C@H]2C [Example 17] : 1.75 nM
COC1CN(C(=O)c2nc3n(n2)-c2ccc(C(F)(F)F)c(Cl)c2C(c2cc(O)ccc2F)=NC3)C1 [Example 16] : 3.6 nM
Cc1nnc2n1-c1ccc(Cl)c(Cl)c1C(c1c(F)ccc(O)c1F)=NC2 [Example 13] : 3.85 nM
CN1C(=O)CN=C(c2c(F)ccc(O)c2F)c2c1ccc(Cl)c2Cl [Example 12] : 2.12 nM

From here, focus on the item given below.
### Prompt Which value of Ki has been reported for Cc1nnc2n1-c1ccc(C(F)(F)F)c(Cl)c1C(c1nc(O)ccc1F)=N[C@H]2C [Example 20] in the records?
### Response 40.1 nM

###

assaySystem: human GABAA α1β3γ2 receptor (Homo sapiens (Human), UniProt P14867+P18507)
assay: Radioligand binding assay, competition for [3H]Flumazenil, HEK293F cells
conditionsUsed: Log[Ki α1β3γ2 (nM)/Ki α2β2γ1 (nM)]
Strictly below 2 in LogSel: satisfied. Otherwise: not satisfied.

Below, 7 molecules whose answers are already recorded.
Cc1nnc2n1-c1ccc(C(F)(F)F)c(Cl)c1C(c1cc(O)ccc1F)=NC2 : satisfied
Cc1cn2c(n1)[C@H](C)N=C(c1nc(O)ccc1Cl)c1c-2ccc(C(F)(F)F)c1Cl : not satisfied
C[C@@H]1N=C(c2nc(O)ccc2F)c2c(ccc(C(F)(F)F)c2Cl)-n2cc(C(=O)N3CCC3)nc21 : not satisfied
Cc1cnc2n1-c1ccc(C(F)(F)F)c(Cl)c1C(c1nc(O)ccc1F)=N[C@H]2C : not satisfied
C[C@@H]1N=C(c2nc(O)ccc2F)c2c(ccc(C(F)(F)F)c2Cl)-n2c1nc1c2CCC1 : not satisfied
C[C@@H]1N=C(c2c(F)ccc(O)c2F)c2c(ccc(Cl)c2Cl)-n2ccc(=O)nc21 : satisfied
Cc1ncc2n1-c1ccc(Cl)cc1C(c1ccccc1F)=NC2 [Midazolam, reference compound] : satisfied

### Prompt Identify whether the molecule Cc1nnc2n1-c1ccc(Cl)c(Cl)c1C(c1cc(O)ccc1F)=N[C@H]2C records LogSel below 2.
### Response satisfied

###

assaySystem: human GABAA α1β2γ1 receptor (Homo sapiens (Human), UniProt P14867+Q8N1C3)
assay: Radioligand binding assay, competition for [3H]RO7239181, membranes from HEK293F cells
conditionsUsed: [3H]RO7239181 20-30 nM, HEK293F membranes, 1 hour at 4° C., mean of two determinations; read-out: Ki h-GABAA α1β2γ1
parameter: Ki
Write your answer as a measured quantity: the number, then the unit.

### Prompt Give Ki (human GABAA α1β2γ1 receptor (Homo sapiens (Human), UniProt P14867+Q8N1C3)) of the following molecule: COC1CN(C(=O)c2nc3n(n2)-c2ccc(C(F)(F)F)c(Cl)c2C(c2cc(O)ccc2F)=NC3)C1 [Example 16]
### Response 11.4 nM

###

assaySystem: human GABAA α2β2γ1 receptor (Homo sapiens (Human), UniProt P47869+Q8N1C3)
assay: Radioligand binding assay, competition for [3H]RO7239181, membranes from HEK293F cells
parameter: pKi
Recall that pKi is obtained by taking minus log10 of the concentration measured in molar.

Illustrative cases are given below, each with its answer.
COC1CN(C(=O)c2ncn3c2CN=C(c2cc(O)ccc2F)c2c-3ccc(C(F)(F)F)c2Cl)C1 : 8.38
Cc1nnc2n1-c1ccc(C(F)(F)F)c(Cl)c1C(c1cc(O)ccc1F)=N[C@H]2C : 8.76
C[C@@H]1N=C(c2cc(O)ccc2F)c2c(ccc(Cl)c2Cl)-n2ccc(=O)nc21 : 8.85
COC1CN(C(=O)c2nc3n(n2)-c2ccc(C(F)(F)F)c(Cl)c2C(c2cc(O)ccc2F)=NC3)C1 : 8.44
Cc1nnc2n1-c1ccc(Cl)c(Cl)c1C(c1c(F)ccc(O)c1F)=NC2 : 8.41

### Prompt Give pKi (human GABAA α2β2γ1 receptor (Homo sapiens (Human), UniProt P47869+Q8N1C3)) of the following molecule: CN1C(=O)CN=C(c2cc(O)ccc2F)c2c1ccc(Cl)c2Cl
### Response 8.64

### Prompt Give pKi (human GABAA α2β2γ1 receptor (Homo sapiens (Human), UniProt P47869+Q8N1C3)) of the following molecule: Cc1nnc2n1-c1ccc(C(F)(F)F)c(Cl)c1C(c1cc(O)ccc1F)=NC2
### Response 8.49

### Prompt Give pKi (human GABAA α2β2γ1 receptor (Homo sapiens (Human), UniProt P47869+Q8N1C3)) of the following molecule: C[C@@H]1N=C(c2nc(O)ccc2F)c2c(ccc(C(F)(F)F)c2Cl)-n2c1nc1c2CCC1
### Response 8.18

### Prompt Give pKi (human GABAA α2β2γ1 receptor (Homo sapiens (Human), UniProt P47869+Q8N1C3)) of the following molecule: Cc1nnc2n1-c1ccc(Cl)c(Cl)c1C(c1c(F)ccc(O)c1F)=N[C@H]2C
### Response 8.51

###

assaySystem: human GABAA α1β3γ2 receptor (Homo sapiens (Human), UniProt P14867+P18507)
assay: Radioligand binding assay, competition for [3H]Flumazenil, HEK293F cells
conditionsUsed: Log[Ki α1β3γ2 (nM)/Ki α2β2γ1 (nM)]
parameter: LogSel
Number only, please.

Cc1nnc2n1-c1ccc(Cl)c(Cl)c1C(c1c(F)ccc(O)c1F)=N[C@H]2C : 1.02
CN1C(=O)CN=C(c2c(F)ccc(O)c2F)c2c1ccc(Cl)c2Cl : 2.24
Cc1nnc2n1-c1ccc(C(F)(F)F)c(Cl)c1C(c1nc(O)ccc1F)=N[C@H]2C : 2.45

### Prompt Which value of LogSel has been reported for COC1CN(C(=O)c2nc3n(n2)-c2ccc(C(F)(F)F)c(Cl)c2C(c2cc(O)ccc2F)=NC3)C1 in the records?
### Response 1.66

### Prompt Which value of LogSel has been reported for C[C@@H]1N=C(c2cc(O)ccc2F)c2c(ccc(Cl)c2Cl)-n2ccc(=O)nc21 in the records?
### Response 2.26

### Prompt Which value of LogSel has been reported for Cc1cnc2n1-c1ccc(C(F)(F)F)c(Cl)c1C(c1nc(O)ccc1Cl)=N[C@H]2C in the records?
### Response 2.93

### Prompt Which value of LogSel has been reported for COC1CN(C(=O)c2ncn3c2CN=C(c2cc(O)ccc2F)c2c-3ccc(C(F)(F)F)c2Cl)C1 in the records?
### Response 1.46

###

assaySystem: human GABAA α1β2γ1 receptor (Homo sapiens (Human), UniProt P14867+Q8N1C3)
assay: Radioligand binding assay, competition for [3H]RO7239181, membranes from HEK293F cells
conditionsUsed: read-out: Ki h-GABAA α1β2γ1; [3H]RO7239181 20-30 nM, HEK293F membranes, 1 hour at 4° C., mean of two determinations
parameter: pKi
Recall that pKi is obtained by taking minus log10 of the concentration measured in molar.

### Prompt Which value of pKi has been reported for CN1C(=O)CN=C(c2cc(O)ccc2F)c2c1ccc(Cl)c2Cl in the records?
### Response 8.54
